// read-out Ki, gathered for Human σ1 receptor (Homo sapiens) from published studies

# Molecule, Ki
data = [
    ("Cc1nn2c(C3CCCN(Cc4ccc(Cl)cc4)C3)ccnc2c1CN(C)Cc1ccc(CO)cc1 (centres unmarked)", "< 500 nM"),
]

## Task GET /values?readout=Ki&item= Cc1nn2c(C3CCCN(Cc4ccc(Cl)cc4)C3)ccnc2c1CN1CCNC(=O)C1 (centres unmarked)
## Result > 1000 nM

## Task Now consider CCC[C@H](c1nc2ccc(F)cc2c(=O)n1CC1CC1)N1CCCN(C)CC1 and answer again.
## Result < 500 nM

## Task Now consider CCN1C[C@@H](C2CCN(Cc3ccc(F)cc3)CC2)O[C@H](C)C1=O and answer again.
## Result ≥ 500 nM

## Task Now consider Cc1cc(C2CCCN(Cc3ccccc3)C2)n2nc(C)c(-c3ccncc3)c2n1 (centres unmarked) and answer again.
## Result > 1000 nM

## Task Now consider CCC[C@@H](c1nc2cc(Cl)c(Cl)cc2c(=O)n1CC)N1CCNC[C@@H](C)C1 and answer again.
## Result > 1000 nM

## Task Now consider CCCC(c1nc2ccc(O)cc2c(=O)n1CC)N1CCCN(C)CC1 (centres unmarked) and answer again.
## Result > 1000 nM

## Task Now consider Cc1nn2c([C@@H]3CCCN(Cc4cccc(C#N)c4)C3)ccnc2c1CNCC1CCOCC1 and answer again.
## Result < 500 nM
